Assay: Inhibition of ABCB1 in multidrug-resistant human SW620/Ad300 cells assessed as increase in reversal of resistance to paclitaxel-induced cytotoxicity by measuring paclitaxel IC50 pre-incubated for 4 hrs followed by paclitaxel addition and measured after 72 hrs by MTT assay (Rvb = 4.23 +/- 0.6 uM)
quantity-measured: IC50 (nM)
Numbers only, in nM.

Cc1cc(Nc2ccc(F)cc2)n2nc(SCc3c(Cl)cccc3Cl)nc2n1
1930
C#CCSc1nc2nc(C)cc(Nc3ccc(F)cc3)n2n1
3360

Please supply IC50 for each of the following items, keeping them in order.
1. Cc1cc(Nc2ccc(F)cc2)n2nc(SCc3cccc(Br)c3)nc2n1
2. Cc1cc(Nc2cccc(F)c2)n2nc(SCc3nc4ccccc4[nH]3)nc2n1

Completion:
1. 2040
2. 520
